AIRE transcriptional activation functional score by entry:
B1: library; numbered along this chain (parent)
chain: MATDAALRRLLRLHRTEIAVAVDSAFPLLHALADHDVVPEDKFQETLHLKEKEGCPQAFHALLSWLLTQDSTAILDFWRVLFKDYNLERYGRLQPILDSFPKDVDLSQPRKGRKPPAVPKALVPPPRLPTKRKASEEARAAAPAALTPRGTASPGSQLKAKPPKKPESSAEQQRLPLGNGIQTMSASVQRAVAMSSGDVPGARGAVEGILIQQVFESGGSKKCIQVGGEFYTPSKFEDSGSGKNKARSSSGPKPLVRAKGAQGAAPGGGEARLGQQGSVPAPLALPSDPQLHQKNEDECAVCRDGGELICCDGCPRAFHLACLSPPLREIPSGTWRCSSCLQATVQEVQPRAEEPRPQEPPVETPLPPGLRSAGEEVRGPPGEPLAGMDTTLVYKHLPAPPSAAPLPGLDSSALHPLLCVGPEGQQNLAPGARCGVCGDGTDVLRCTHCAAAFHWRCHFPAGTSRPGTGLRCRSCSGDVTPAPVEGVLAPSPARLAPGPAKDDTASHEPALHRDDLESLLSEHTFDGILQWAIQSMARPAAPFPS

# Variants of: B1
# assayProtocol: AIRE transcriptional activation functional score (insulin promoter-GFP; nonsense median 0, synonymous median 1) (normalised score); higher = higher AIRE activity (more reporter activation)
# cond: with insulin promoter-GFP reporter in HEK293

// worked examples, AIRE transcriptional activation functional score included
Q173D : 0.988
S187G : 0.706
E522K : 0.503

Qu. # get_value(readout='AIRE transcriptional activation functional score', item= H448Y )
Ans. 1.26

Qu. And the next one, F230W ?
Ans. 0.97

Qu. And the next one, G387F ?
Ans. 1.52

Qu. And the next one, G486F ?
Ans. 1.46

Qu. And the next one, L409A ?
Ans. 0.384
